Consider the following compounds; for each one, report its residual activity.
# System: AKT1 (human), P31749 [S473D]
# Sequence (P31749 whole entry S473D, looked up): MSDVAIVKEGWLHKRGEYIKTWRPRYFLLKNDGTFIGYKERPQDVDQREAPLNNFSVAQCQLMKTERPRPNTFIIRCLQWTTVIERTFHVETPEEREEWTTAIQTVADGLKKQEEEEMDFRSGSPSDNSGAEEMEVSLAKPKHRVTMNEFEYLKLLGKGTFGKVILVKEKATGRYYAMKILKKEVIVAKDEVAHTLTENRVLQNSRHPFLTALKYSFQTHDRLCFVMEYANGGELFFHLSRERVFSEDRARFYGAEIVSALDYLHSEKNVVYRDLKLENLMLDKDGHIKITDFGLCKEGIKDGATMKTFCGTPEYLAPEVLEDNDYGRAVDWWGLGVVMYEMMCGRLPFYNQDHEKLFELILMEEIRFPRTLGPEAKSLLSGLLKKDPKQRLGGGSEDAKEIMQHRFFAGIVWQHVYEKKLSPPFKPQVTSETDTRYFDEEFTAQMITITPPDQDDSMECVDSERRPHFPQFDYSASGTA
# METHOD SUMMARY: radiometric filter-binding kinase assay
# MEASUREMENT SETUP: compound 0.1 µM
Just the number please, in %, no unit attached.

Prompt: Report measured residual activity; entry is CC1=C(CO)C(=O)O[C@@H]([C@@H](C)[C@H]2CC[C@H]3[C@@H]4C[C@H]5O[C@]56[C@@H](O)C=CC(=O)[C@]6(C)C4CC[C@]23C)C1 (some centres undefined)
Completion: 118

Prompt: Answer with the recorded residual activity of `CN1CCN(CCOc2cc(OC3CCOCC3)c3c(Nc4c(Cl)ccc5c4OCO5)ncnc3c2)CC1` only.
Completion: 99

Prompt: Provide only the value of recorded residual activity for COc1ccc2c(c1)c1c3c(c4c5ccccc5n(C)c4c1n2CC(O)CN(C)C)C(=O)NC3=O (centres undefined)
Completion: 70

Prompt: Entry `CCCCCc1ccc(/C=C/[C@H](O)[C@@H](CO)NC)cc1` needs its residual activity filled in; supply it.
Completion: 99

Prompt: Indicate the recorded residual activity value for this compound: `Cn1c(=O)c2c(ncn2C)n(C)c1=O`
Completion: 90

Prompt: Answer with the recorded residual activity for the compound listed here: `C=CC(=O)N1CCC[C@@H](n2nc(-c3ccc(Oc4ccccc4)cc3)c3c(N)ncnc32)C1`
Completion: 79

Prompt: Indicate the recorded residual activity value for this compound: `COc1cc(O)c2c(c1)/C=C/C[C@H](O)[C@H](O)C(=O)/C=C\C[C@H](C)OC2=O`
Completion: 111

Prompt: Note residual activity for the compound shown: `Cc1cccc(-c2nn(C(=S)Nc3ccccc3)cc2-c2ccnc3ccccc23)n1`
Completion: 102

Prompt: Give residual activity for the following compound: `O=C(Nc1ccccc1-c1cn2c(CN3CCNCC3)csc2n1)c1cnc2ccccc2n1`
Completion: 86

----------
# STUDY SYSTEM: MAPK13 (human)
# METHOD SUMMARY: radiometric filter-binding kinase assay
# MEASUREMENT SETUP: compound 1.0 µM
QUANTITY KIND: residual activity (%)
Report as a plain number; the unit % is understood.

Prompt: For the molecule `CN(C)C/C=C/C(=O)Nc1cccc(C(=O)Nc2ccc(Nc3nccc(-c4cccnc4)n3)cc2)c1` , give its reported residual activity.
Completion: 100

Prompt: Fill in residual activity for record `O=C(N[C@@H](COc1ccc2[nH]c(=O)[nH]c2c1)c1ccccc1)c1cccn(Cc2ccc(F)c(F)c2)c1=O`
Completion: 97

Prompt: Respond only with residual activity recorded for `Cc1cc(SCc2sc(-c3ccc(C(F)(F)F)cc3)nc2C)ccc1OCC(=O)O`
Completion: 102

Prompt: Identify measured residual activity corresponding to `NC(=O)Nc1ccc2c(c1)/C(=C/c1cc(-c3cccnc3)c[nH]1)C(=O)N2`
Completion: 62

Prompt: Return residual activity for the following molecule: `CN1C(=O)[C@@H](Cc2c[nH]c3ccccc23)NC1=S`
Completion: 96

Prompt: Kindly indicate its recorded residual activity. Item: `NC(=O)c1cc2c(-c3cccc(-c4ccccc4)c3)cnc(N)c2s1`
Completion: 77

Prompt: Recall and state the measured residual activity for `Cc1ccc(-c2ccc3c(ccc4sc5c(c43)NC[C@@H](C)NC5=O)n2)cn1` .
Completion: 103

Prompt: Give a short answer stating reported residual activity for COc1ccc2c(c1)c1c3c(c4c5ccccc5n(C)c4c1n2CC(O)CN(C)C)C(=O)NC3=O (stereo not given) .
Completion: 65

Prompt: Quote residual activity reported for `O=C1NC(=S)N[C@@H]1Cc1c[nH]c2ccccc12` please.
Completion: 94

Prompt: Entry `NC(=O)c1ccc(-c2ccc(Oc3cncc4sc(-c5nn[nH]n5)cc34)cc2)cc1` needs its residual activity filled in; supply it.
Completion: 92

Prompt: Using the record for `O=C(NCCCNc1nc(Nc2cccc(CN3CCOCC3)c2)ncc1C1CC1)C1CCC1` , state its measured residual activity.
Completion: 90

Prompt: Read the entry O=C1Nc2nc(-c3c(O)cccc3OCC3CC3)cc(C3CCCNC3)c2CO1 (stereo not given) and write its reported residual activity.
Completion: 88

Prompt: Report measured residual activity; entry is `O=C(Nc1ccccc1-c1cn2c(CN3CCNCC3)csc2n1)c1cnc2ccccc2n1`
Completion: 78

Prompt: Read off the recorded residual activity for `Cc1cc(NC(=O)c2cccc(NC(=O)/C=C/CN(C)C)c2)ccc1Nc1nccc(-c2cccnc2)n1`
Completion: 80

Prompt: Provide only the value of recorded residual activity for `FC(F)(F)c1ccc(-c2ccc(Oc3cncc4sc(-c5nn[nH]n5)cc34)cc2)cc1`
Completion: 113

Prompt: Please report residual activity for the following molecule: CC1=C(CO)C(=O)O[C@@H]([C@@H](C)[C@H]2CC[C@H]3[C@@H]4C[C@H]5O[C@]56[C@@H](O)C=CC(=O)[C@]6(C)C4CC[C@]23C)C1 (stereo not given in full)
Completion: 110

Prompt: Return value of residual activity for input Nc1cccc2c1CN(C1CCC(=O)NC1=O)C2=O (stereo not given) , no commentary.
Completion: 109

Prompt: Retrieve residual activity measured for `Cc1ccc(=O)n(-c2ccccc2)c1` and print it.
Completion: 97

Prompt: Please indicate residual activity recorded for `CCn1c(-c2nonc2N)nc2cncc(CNC3CCNCC3)c21`
Completion: 99

Prompt: Provide only the value of recorded residual activity for O=C(NOCC(O)CO)c1ccc(F)c(F)c1Nc1ccc(I)cc1Cl (stereo not given)
Completion: 84
